B1: ZBED2 (parent)
chain: FHLAPARAGHHPNQYATCRLCGRQ

- Variants of: B1
- protocol text: protein stability index of a GFP-peptide fusion (GPS, HEK-293T) (PSI 1-6); higher = more stable;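 note: lentivirally expressed fusions sorted by FACS into six bins by GFP to DsRed ratio, PSI derived from sequencing read proportions per bin multiplied by bin number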
- assay context: c terminus: a fixed tail appended
Given measured protein stability index, output True if it is greater than or equal to 2 and False if not.

variant key: A8C
class name: True

variant key: L3N
class name: True

variant key: A6V
class name: True

Quick check: does `G22E` have protein stability index greater than or equal to 2? False

Quick check: does `A8M` have protein stability index greater than or equal to 2? True

Quick check: does `A16Y` have protein stability index greater than or equal to 2? True
